# subject_of_test: recombinant human GITR (Cat No. 13643-H08H, Lot No. LC12JA2509, Sino Biological) (human) (UniProt Q9Y5U5)
# assay_procedure: SPR Biacore 8K, multi-cycle kinetics, purified IgG captured on Protein A, GITR as analyte

binder	Relative KD (fold vs VH0/VL0)
anti-GITR 51B VH3/VL5 humanized antibody (human IgG1, kappa) (antibody, V domains shown) VH: QVQLVQSGAEVKKPGASVKVSCKTTGYRFTGYWIEWVRQPPGKGLEWIGEILPGSGATYYSENFKGKVTITADTSTDTAYMELSSLRSEDTAIYYCARKGGYYAMDYWGQGTLVTVSS VL: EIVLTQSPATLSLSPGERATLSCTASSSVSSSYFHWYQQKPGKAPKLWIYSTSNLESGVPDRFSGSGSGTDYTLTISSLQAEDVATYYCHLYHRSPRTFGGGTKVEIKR	1.37
anti-GITR 51B VH3/VL4 humanized antibody (human IgG1, kappa) (antibody, V domains shown, also called VH3/Vk4; 51B VH3/Vk4) VH: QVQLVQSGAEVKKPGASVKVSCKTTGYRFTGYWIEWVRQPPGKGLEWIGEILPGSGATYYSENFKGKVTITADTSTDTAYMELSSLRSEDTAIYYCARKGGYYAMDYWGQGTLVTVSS VL: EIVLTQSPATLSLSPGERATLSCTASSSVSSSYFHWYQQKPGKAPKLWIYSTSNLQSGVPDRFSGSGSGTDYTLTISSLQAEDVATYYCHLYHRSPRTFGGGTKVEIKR	1.19
